From: patent US6867207B2

# Test system: IL-5 production
# ASSAY_METHOD_TEXT: In vitro inhibition of IL-5 production in human blood (phytohemagglutinin-stimulated whole blood, ELISA);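 further: values marked with an asterisk were tested at 10 µM and unmarked values at 1 µM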
# Assay type: cell-based
# CONDITION_SET: test dose 1×10^−6 M, 48 hours
Catalogue of compounds with associated % inh. (percentage inhibition of IL-5 production)
Kindly answer with a numeric value in %, unit omitted.

Solved cases below.
> print(dat)
                                   compound  result
1  O=c1cnn(-c2cc(Cl)c(C(SC3=NCCS3)c3ccc(Cl)c(C(F)(F)F)c3)c(Cl)c2)c(=O)[nH]1 (stereo not shown) [Compound 386]      97
2  O=c1cnn(-c2cc(Cl)c(C(c3ccc(Cl)cc3)c3nc(-c4c(Cl)cccc4Cl)cs3)c(Cl)c2)c(=O)[nH]1 (racemic) [Comp 264]      79
3  Cc1ccnc(SC(c2ccc(Cl)cc2)c2ccc(-n3ncc(=O)[nH]c3=O)cc2Cl)n1 (racemic) [Compound 75]      72
4  CN1CCN(c2ccnc(SC(c3ccc(Cl)cc3)c3c(Cl)cc(-n4ncc(=O)[nH]c4=O)cc3Cl)n2)CC1 (racemic) [Compound 345]      88
5  O=C(NC(c1ccc(Cl)cc1)c1ccc(-n2ncc(=O)[nH]c2=O)cc1Cl)c1ccccc1 (racemic) [Compound 47]      33

Input: Entry CCOC(=O)c1sc(C(c2ccc(Cl)cc2)c2c(Cl)cc(-n3ncc(=O)[nH]c3=O)cc2Cl)nc1-c1ccccc1Cl (racemic) [Comp 274] : reported % inh. (percentage inhibition of IL-5 production) = ?
Output: 89

Input: Entry O=c1cnn(-c2cc(Cl)c(C(c3ccc(Cl)cc3)c3nnc(-c4ccccc4)s3)c(Cl)c2)c(=O)[nH]1 (stereo not shown) [Comp 427] : reported % inh. (percentage inhibition of IL-5 production) = ?
Output: 72

====

# Tested on: IL-5 production
# ASSAY_METHOD_TEXT: In vitro inhibition of IL-5 production in human blood (phytohemagglutinin-stimulated whole blood, ELISA);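 further: values marked with an asterisk were tested at 10 µM and unmarked values at 1 µM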
# Assay type: cell-based
# CONDITION_SET: test dose 1×10^−6 M, 48 hours
Lab note: compare % inh. (percentage inhibition of IL-5 production) against 70%. Equal or greater, write yes (1). Smaller, write no (0).

> print(dat)
                                   molecule  assigned.category
1  CN(C)Cc1csc(C(c2ccc(Cl)cc2)c2c(Cl)cc(-n3ncc(=O)[nH]c3=O)cc2Cl)n1 (racemic)             no (0)

Input: hey, is % inh. (percentage inhibition of IL-5 production) for this one >= 70%? [N-]=[N+]=Nc1ccc(-c2nnc(C(c3ccc(Cl)cc3)c3c(Cl)cc(-n4ncc(=O)[nH]c4=O)cc3Cl)o2)cc1 (racemic)
Output: yes (1)

Input: hey, is % inh. (percentage inhibition of IL-5 production) for this one >= 70%? O=c1cnn(-c2cc(Cl)c(C(c3ccc(Cl)cc3)c3nc(-c4ccc(Br)cc4)cs3)c(Cl)c2)c(=O)[nH]1 (racemic)
Output: yes (1)

Input: hey, is % inh. (percentage inhibition of IL-5 production) for this one >= 70%? O=c1cnn(-c2cc(Cl)c(C(Sc3ccccn3)c3ccc(Cl)cc3)c(Cl)c2)c(=O)[nH]1 (stereo not drawn)
Output: yes (1)

Input: hey, is % inh. (percentage inhibition of IL-5 production) for this one >= 70%? CN(C)CCN(C)C(=O)Cc1sc(C(c2ccc(Cl)cc2)c2c(Cl)cc(-n3ncc(=O)[nH]c3=O)cc2Cl)nc1-c1ccccc1 (racemic)
Output: no (0)

Input: hey, is % inh. (percentage inhibition of IL-5 production) for this one >= 70%? O=c1cnn(-c2cc(Cl)c(C(c3ccc(Cl)cc3)c3nc(-c4ccc(Cl)c(Cl)c4)cs3)c(Cl)c2)c(=O)[nH]1 (racemic)
Output: yes (1)
